- Species: Homo sapiens
- Procedure Details: Ratio of IC50 for human nNOS to EC50 for human iNOS
Readout Label: Ratio EC50

Examples with answers:
[
  {
    "Smiles": "O=c1cc(Cn2c(-c3cncs3)nc3ccccc32)c2ccc(F)c(F)c2[nH]1",
    "Readout Label": "Ratio EC50",
    "Observed": "> 12"
  },
  {
    "Smiles": "CCc1nc2ccccc2n1Cc1cc(=O)[nH]c2c(F)c(F)ccc12",
    "Readout Label": "Ratio EC50",
    "Observed": "> 2"
  },
  {
    "Smiles": "O=c1cc(Cn2c(CC3CCCC3)nc3ccccc32)c2ccc(F)c(F)c2[nH]1",
    "Readout Label": "Ratio EC50",
    "Observed": "> 6"
  },
  {
    "Smiles": "Cc1ccncc1-c1nc2ccccc2n1Cc1cc(=O)[nH]c2c(F)c(F)ccc12",
    "Readout Label": "Ratio EC50",
    "Observed": "> 1"
  }
]

Pending compound:
Sample O=c1cc(Cn2c(-c3cccnc3)nc3ccccc32)c2ccc(F)c(F)c2[nH]1 — what was its Ratio EC50? > 1
